I'd appreciate it if you could supply TGI values for the items below.
System: NCI-H460 lung
EXPERIMENT: NCI tumour cell line growth inhibition, 48 h

### Prompt Print NCI-H460 lung TGI for CSc1cc(Cl)c(C)cc1S(=O)(=O)NC(=O)NNc1cnc2ccccc2n1 .
### Response > 100 µM

### Prompt Print NCI-H460 lung TGI for CCc1cc(Cc2cc(CC)cc(C(C)(C)C)c2O)c(O)c(C(C)(C)C)c1 .
### Response 6.98 µM

### Prompt Print NCI-H460 lung TGI for O=C(O)c1cccc(F)c1C(=O)c1ccc2ccccc2c1 .
### Response > 100 µM

### Prompt Print NCI-H460 lung TGI for [B]C(=O)NC(CC(C)C)C(=O)NC1c2ccsc2C(=O)C1O (stereo unspecified) (tested in a mixture with another compound) .
### Response > 100 µM

### Prompt Print NCI-H460 lung TGI for CC(=O)Oc1ccc(C2SCc3nc4ccccc4n32)cc1 (stereo unspecified) .
### Response > 100 µM

### Prompt Print NCI-H460 lung TGI for CCN(CC)[C@@H]1c2cc3c(cc2C(c2cc(OC)c(O)c(OC)c2)C2C(=O)CO[C@@H]21)OCO3 (stereo partly specified) .
### Response > 100 µM

### Prompt Print NCI-H460 lung TGI for COc1ccc2nc3c(cc2c1)C(=O)CC(C(F)(F)F)C3 (stereo unspecified) .
### Response > 100 µM

### Prompt Print NCI-H460 lung TGI for COC(=O)Cc1c(-c2c(CC(=O)OC)c3ccccc3n2C2OC(COC3OC(COC(C)=O)C(OC(C)=O)C(OC(C)=O)C3OC(C)=O)C(O)C(O)C2O)[nH]c2ccccc12 (stereo unspecified) .
### Response > 100 µM

### Prompt Print NCI-H460 lung TGI for CCCCCC(=O)OC[n+]1ccc(-c2c(COC(=O)NC(C)C)c(COC(=O)NC(C)C)c3n2CCC3)cc1 .
### Response > 100 µM

### Prompt Print NCI-H460 lung TGI for COc1ccc(/C=N/C2=C(C#N)C(c3ccccc3)c3ccc4ccccc4c3O2)cc1 (stereo unspecified) .
### Response > 100 µM

### Prompt Print NCI-H460 lung TGI for CSc1c(C#N)c(=O)n(N)c2n[nH]c(C)c12 .
### Response > 100 µM

### Prompt Print NCI-H460 lung TGI for COc1ccc2oc(=O)c(-c3nc4ccccc4s3)cc2c1 .
### Response > 100 µM

### Prompt Print NCI-H460 lung TGI for NC(CSC(c1ccccc1)(c1ccccc1)c1ccc(Br)cc1)C(=O)O (stereo unspecified) .
### Response 18.1 µM

### Prompt Print NCI-H460 lung TGI for O=C(CN1CCOCC1)c1ccc2c(c1)oc(=O)n2CCN1CCCCC1 .
### Response > 100 µM

### Prompt Print NCI-H460 lung TGI for C[C@H](OC(=O)/C=C/c1ccc(O)c(O)c1)[C@H](C)OC(=O)/C=C/c1ccc(O)c(O)c1 .
### Response > 100 µM

### Prompt Print NCI-H460 lung TGI for CC1(C)CC(=O)C(/C=N/c2nc(-c3cccc([N+](=O)[O-])c3)cs2)=C(O)C1 .
### Response 27.8 µM

### Prompt Print NCI-H460 lung TGI for Cc1ccc(S(=O)(=O)N/N=C2/C3CC4CCC2C4C3)cc1 (stereo unspecified) .
### Response > 100 µM

### Prompt Print NCI-H460 lung TGI for O=c1c(-c2nc3ccccc3[nH]2)cc2ccccc2n1Cc1cn(Cc2ccc(F)cc2)nn1 .
### Response > 100 µM

### Prompt Print NCI-H460 lung TGI for c1ccc(Oc2cnc3ccccc3n2)cc1 .
### Response > 100 µM

### Prompt Print NCI-H460 lung TGI for CCOC(=O)C(C(=O)OCC)C(=S)NC1OC(COC(C)=O)C(OC(C)=O)C(OC(C)=O)C1OC(C)=O (stereo unspecified) .
### Response > 100 µM

### Prompt Print NCI-H460 lung TGI for COc1cc(Cl)c(C)cc1NC(=O)c1cc2ccccc2cc1O .
### Response 9.63 µM
